Sourced from the supplement of paper PMC12494721

# Tested on: Clostridium sporogenes DSM 1664
# measurementProtocol: fold change of Tryptamine concentration vs plate DMSO controls (fold change (ratio)); higher = more amine produced, active = hit call of the paper (significant change in both replicates, either direction);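 for the amine columns active = adjusted P below 0.05 in both replicates with a change the same way and a mean fold change under 0.8 or over 1.25; inactive = the rest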
# measurementParameters: incubation time: 27 h, anaerobic, 37 °C
Structures can show the parent of a compound that is named as a salt.
Select the correct class. Options are 1 (active), 0 (inactive) and nothing else.

# compound, class
measured = [
    ("Cc1oncc1C(=O)Nc1ccc(C(F)(F)F)cc1 [Leflunomide] (20 µM)", 0),
    ("Nc1ccc(C(=O)NCC(=O)O)cc1 [Aminohippuric acid] (20 µM)", 0),
    ("CC(C)(C)CC(C)(C)c1ccc(O)c(Cc2ccc(Cl)cc2Cl)c1 [Clofoctol] (20 µM)", 1),
    ("Cc1cc2cc3c(C)cc(=O)oc3c(C)c2o1 [Trioxsalen] (20 µM)", 0),
    ("Nc1ccc(O)c(C(=O)O)c1 [Mesalamine] (20 µM)", 0),
    ("CC1=C(CC(=O)O)c2cc(F)ccc2/C1=C\\c1ccc([S+](C)[O-])cc1 (stereo not drawn) [Sulindac] (20 µM)", 0),
    ("NCCc1ccc(O)c(O)c1 [Dopamine hydrochloride] (20 µM)", 0),
    ("Nc1ccc(S(=O)(=O)Nc2ccnn2-c2ccccc2)cc1 [Sulfaphenazole] (20 µM)", 0),
    ("CC(C)c1nc(N(C)S(C)(=O)=O)nc(-c2ccc(F)cc2)c1/C=C/[C@@H](O)C[C@@H](O)CC(=O)O [Rosuvastatin] (20 µM)", 0),
    ("CC(=O)Nc1ccc(C(=O)O)cc1 [Acedoben] (20 µM)", 0),
]

Ask | Would you mind telling me which call this test gave CCN(CC)CCNC(=O)c1cc(Cl)c(N)cc1OC [Metoclopramide monohydrochloride] (20 µM) ?
Reply | 0

Ask | Entry CC[C@H]1OC(=O)[C@H](C)[C@@H](O[C@H]2C[C@@](C)(OC)[C@@H](O)[C@H](C)O2)[C@H](C)[C@@H](O[C@@H]2O[C@H](C)C[C@H](N(C)C)[C@H]2O)[C@](C)(O)C[C@@H](C)CN(C)[C@H](C)[C@@H](O)[C@]1(C)O [Azithromycin] (20 µM) : call = ?
Reply | 1

Ask | Tell me the recorded outcome of this test for CCCCc1cc2ccccc2c(OCCN(C)C)n1 [Dimethisoquin hydrochloride] (20 µM) .
Reply | 0

Ask | In this assay, the call recorded for COCCCOc1ccnc(C[S+]([O-])c2nc3ccccc3[nH]2)c1C (stereo not drawn) [Rabeprazole sodium salt] (20 µM) was what?
Reply | 0

Ask | Name the outcome recorded for NC(CO)C(=O)NNCc1ccc(O)c(O)c1O (stereo not drawn) [Benserazide hydrochloride] (20 µM) in the assay.
Reply | 0

Ask | GET /call?item= C=CCOC(Cn1ccnc1)c1ccc(Cl)cc1Cl (stereo not drawn) [Enilconazole] (20 µM) returns the recorded outcome of this test.
Reply | 0

Ask | What classification did COC(=O)C1=C(C)NC(C)=C(C(=O)OCCN(C)Cc2ccccc2)C1c1cccc([N+](=O)[O-])c1 (stereo not drawn) [Nicardipine hydrochloride] (20 µM) end up with in this test?
Reply | 0

Ask | Any idea what this test logged for CN(C)CCOC(C)(c1ccccc1)c1ccccn1 (stereo not drawn) [Doxylamine succinate] (20 µM) ?
Reply | 0

Ask | Dear colleague, could you share the recorded outcome for CCCNCC(O)COc1ccccc1C(=O)CCc1ccccc1 (stereo not drawn) [Propafenone hydrochloride] (20 µM) when you have a moment?
Reply | 0

Ask | Which result was noted for this compound in the test: Nc1cccc2c1C(=O)N(C1CCC(=O)NC1=O)C2=O (stereo not drawn) [Pomalidomide] (20 µM)
Reply | 0

Ask | Could you please tell me the result logged for O=C(O)c1ccccc1Nc1cc(Cl)ccc1C(=O)O [Lobenzarit disodium] (20 µM) in this assay?
Reply | 0

Ask | Check the results log: what was the call for CC[C@H]1OC(=O)C[C@@H](O)[C@H](C)[C@@H](O[C@@H]2O[C@H](C)[C@@H](O[C@H]3C[C@@](C)(O)[C@@H](O)[C@H](C)O3)[C@H](N(C)C)[C@H]2O)[C@@H](CC=O)C[C@@H](C)C(=O)/C=C/C(C)=C/[C@@H]1CO[C@@H]1O[C@H](C)[C@@H](O)[C@@H](OC)[C@H]1OC [Tylosin] (20 µM) ?
Reply | 1

Ask | So what was the verdict on O=C1CN(/N=C/c2ccc(-c3ccc([N+](=O)[O-])cc3)o2)C(=O)N1 [Dantrolene sodium salt] (20 µM) in this test?
Reply | 0
